Molecular target: T1, UNK ZnF1-6 (called full-length) (human, UniProt Q9C0B0 30-357)
T1 sequence: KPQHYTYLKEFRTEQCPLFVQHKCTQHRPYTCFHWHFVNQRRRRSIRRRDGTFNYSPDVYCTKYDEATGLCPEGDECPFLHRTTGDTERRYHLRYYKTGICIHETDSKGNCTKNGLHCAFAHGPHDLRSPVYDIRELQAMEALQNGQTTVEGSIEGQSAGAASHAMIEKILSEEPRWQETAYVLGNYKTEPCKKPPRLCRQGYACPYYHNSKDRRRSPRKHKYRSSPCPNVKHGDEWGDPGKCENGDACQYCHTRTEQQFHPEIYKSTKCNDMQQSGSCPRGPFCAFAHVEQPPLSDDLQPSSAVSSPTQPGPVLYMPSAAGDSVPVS
Assay: nsRBNS (natural sequence RNA bind-n-seq); RBNS binding buffer (assumed for nsRBNS): 25 mM Tris pH 7.5, 150 mM KCl, 3 mM MgCl2, 0.01% Triton X-100, 500 ug/ml BSA, 20 U/ml SUPERase-In, 4 C; UNK is unkempt and MSI1 is Musashi-1; names of the RNAs are library labels; protein concentration not given here; high values mean tight binding
The full ranking holds about 5,800 sequences; the median of “enrichment r” is about 0.68, and the highest 2% start at about 11. For the sample, the highest values were picked, then their nearest neighbours and some sequences at random.
Please use satisfied whenever binding signal is not below 0.6 enrichment R, and not satisfied whenever it is.

Consider the worked cases shown below.
binder	group
ENSG00000198589:be:win_7401|CDS|ENSG00000198589|bound_else_gene|NA|bound_elsewhere_windowed (ssRNA) RNA: GGGAGUUCUACAGUCCGACGAUCUUCUCAACUACUCAUAGAGCCCCAUCCUCCCAGAGGUUCUGCCAUGCAAGUGAGUCCAUUGAUGUUCACAGACAAAGCCCAGCAGGAUGUUAUCAUGGUCCUCAAGUUUCCCUCCAACUCCAACAGAGGAUUGAGCAUCA	not satisfied
ENSG00000170312:stop:overlap|stop_codon|ENSG00000170312|stop_codon|NA|stop_codon (ssRNA) RNA: GGGAGUUCUACAGUCCGACGAUCGCAAAAUGGCACUGAAUCAUCCAUAUUUUAAUGAUUUGGACAAUCAGAUUAAGAAGAUGUAGCUUUCUGACAAAAAGUUUCCAUAUGUUAUAUCAACAGAUAGUUGUGUUUUUAUUGUUACAACAGAGGAUUGAGCAUCA	satisfied
ENSG00000107863:be:win_3701|CDS|ENSG00000107863|bound_else_gene|NA|bound_elsewhere_windowed (ssRNA) RNA: GGGAGUUCUACAGUCCGACGAUCUCUUCACAAAUGAUAAAUAUGCUGAUUUUAUUGAAGCCAAUCGUAAAGAAGAUCCUCUAGAUCGUCUGAAAACAUUAAAAAGACUAAUUCACGAUUUGCCUGAACAUCAUUAUGAAACACCAACAGAGGAUUGAGCAUCA	not satisfied
ENSG00000198589:be:win_7901|CDS|ENSG00000198589|bound_else_gene|NA|bound_elsewhere_windowed (ssRNA) RNA: GGGAGUUCUACAGUCCGACGAUCCUCGUUCUGAGUCAUAUAUUGGGGGAAAUUGCUACAUUCUCUCAGGGUCACGUGAUGCAACUCUUUUGCUGUGGUAUUGGAAUGGAAAAUGCAGUGGGAUUGGAGAUAACCCAGGCAGUGCAACAGAGGAUUGAGCAUCA	satisfied
ENSG00000227500:stop:overlap|stop_codon|ENSG00000227500|stop_codon|NA|stop_codon (ssRNA) RNA: GGGAGUUCUACAGUCCGACGAUCGCAACAGCCUGCCCGAGUACCCCACUGUGCCCAGCUACCCGGGCAGUGGCCAGUGGCCUUAGAGGGAGCCUGCCCUGCCCCCACCGCCCACCACCUCCUCCCCUUCAUUCCUGCUGCUACCAACAGAGGAUUGAGCAUCA	satisfied
chr6:52279506:52279615:-|CDS|ENSG00000112118|unk|total|mutant (ssRNA) RNA: GGGAGUUCUACAGUCCGACGAUCUGAGUGUGGCAUUUUUAAGACAGGACGGAGAUCACUCUGUCCCUCUGUGUGCCUUUUUCCCGGAUGAGGAGAACAAUCCCCUUGAGACAGAAUAUGGCCUUUCUGUCUACAAGGAUCACCCAACAGAGGAUUGAGCAUCA	not satisfied

Would you kindly look at the next entry?
# bool: binding signal of chrX:107070192:107070425:-|CDS|ENSG00000089682|control|control|control (ssRNA) RNA: GGGAGUUCUACAGUCCGACGAUCCGUUCUAGGAGCCAAAUGGCAGAAAAGGACUGGGAGGACCUCAACAUUUAGUAUUCUCUUAGUUUCCUUGCUUUCAGAAACAGUGUUCACAUCUUCAGCCAUGUAUGGCAUUCCCCAUCUCAACAGAGGAUUGAGCAUCA >= 0.6 enrichment R satisfied
